Data credit: patent US7842808B2

Give measured pIC50 for each item. Keep answers brief.
- assayed system: CGRP receptor (SK-N-MC cell membranes) (Homo sapiens, UniProt O60894+Q16602)
- Construct: endogenous in cells; host or cells: SK-N-MC cells (membrane homogenate)
- Sequence (Q16602 23-461): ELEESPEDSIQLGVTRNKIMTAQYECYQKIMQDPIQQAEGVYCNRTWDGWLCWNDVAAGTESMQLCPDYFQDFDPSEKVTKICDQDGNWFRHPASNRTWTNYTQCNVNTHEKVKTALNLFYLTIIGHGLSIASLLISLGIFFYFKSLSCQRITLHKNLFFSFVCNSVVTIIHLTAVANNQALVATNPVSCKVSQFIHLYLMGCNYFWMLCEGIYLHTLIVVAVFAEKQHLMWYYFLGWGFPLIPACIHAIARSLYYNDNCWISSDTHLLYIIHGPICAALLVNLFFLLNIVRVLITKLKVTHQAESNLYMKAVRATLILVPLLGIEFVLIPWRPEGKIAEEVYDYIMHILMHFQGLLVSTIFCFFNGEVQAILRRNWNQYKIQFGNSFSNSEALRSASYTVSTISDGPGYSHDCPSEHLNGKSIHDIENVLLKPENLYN
- Sequence (O60894 27-148): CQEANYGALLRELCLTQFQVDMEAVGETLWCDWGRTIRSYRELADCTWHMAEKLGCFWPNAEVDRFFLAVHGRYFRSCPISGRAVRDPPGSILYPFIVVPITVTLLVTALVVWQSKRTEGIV
- run description: CGRP Binding Assay ([125I]-CGRP radioligand binding, SK-N-MC homogenate)
- test conditions: displacement of [125I]-CGRP, SK-N-MC homogenate; read-out: CGRP binding IC50
- Procedure: Tissue Culture. SK-N-MC cells were grown at 37° C. in 5% CO2 as a monolayer in medium consisting of MEM with Earle's salts and L-glutamine (Gibco) supplemented with 10% fetal bovine serum (Gibco). Cell Pellets. […] The cells were transferred from plates to polypropylene tubes (16×100 mm) and homogenized using a polytron. Homogenates were centrifuged at 32,000×g for 30 min. […] Radioligand Binding Assay. […] Protein bound radioactivity was determined using a gamma or scintillation counter.
pIC50: −log10 of the molar value.

The reported value for COc1ccc(NC(=O)N[C@@H](CC(=O)N2CCC(N3Cc4ccccc4NC3=O)CC2)C(=O)N2CCC(N3CCCCC3)CC2)cc1 [Example 181] in terms of pIC50 is 6.00 to 7.00

The reported value for O=C(N[C@@H](CC(=O)N1CCC(N2Cc3ccccc3NC2=O)CC1)C(=O)N1CCC(N2CCCCC2)CC1)[C@@H]1C[C@H]1c1ccccc1 [Example 104] in terms of pIC50 is 6.00 to 7.00

The reported value for O=C(Nc1ccccc1-c1ccccc1)N[C@@H](CC(=O)N1CCC(N2Cc3ccccc3NC2=O)CC1)C(=O)N1CCC(N2CCCCC2)CC1 [Example 197] in terms of pIC50 is 6.00 to 7.00

----------
Give measured pIC50 for each item. Keep answers brief.
- assayed system: human CGRP receptor (SK-N-MC cells) (Homo sapiens, UniProt O60894+Q16602)
- Construct: SK-N-MC cells that endogenously express the human CGRP receptor; endogenous in cells; host or cells: SK-N-MC cells
- run description: Cyclic AMP Assay, functional antagonism of CGRP-induced cyclic AMP formation
- Assay type: cell-based
pIC50: −log10 of the molar value.

The reported value for Cc1cc(CC(CC(=O)N2CCC3(CC2)OC(=O)Nc2ccccc23)C(=O)N2CCC3(CC2)OCCO3)cc2cn[nH]c12 (racemic) in terms of pIC50 is > 8.00

The reported value for O=C(NC(Cc1ccc2[nH]ccc2c1)C(=O)N1CCC2(CC1)OCCO2)N1CCC(n2c(=O)[nH]c3ccccc32)CC1 (racemic) in terms of pIC50 is 6.00 to 7.00

The reported value for O=C(CC(Cc1ccc2[nH]ncc2c1)C(=O)N1CCC2(CC1)OCCO2)N1CCC(N2Cc3ccccc3NC2=O)CC1 (racemic) in terms of pIC50 is 6.00 to 7.00

----------
- assayed system: CGRP receptor (SK-N-MC cell membranes) (Homo sapiens, UniProt O60894+Q16602)
- Construct: endogenous in cells; host or cells: SK-N-MC cells (membrane homogenate)
- run description: CGRP Binding Assay ([125I]-CGRP radioligand binding, SK-N-MC homogenate)
- test conditions: displacement of [125I]-CGRP, SK-N-MC homogenate; read-out: CGRP binding IC50
pIC50: −log10 of the molar value.
Give measured pIC50 for each item. Keep answers brief.

The reported value for O=C(NCc1ccccc1)N[C@@H](CC(=O)N1CCC(N2Cc3ccccc3NC2=O)CC1)C(=O)N1CCC(N2CCCCC2)CC1 in terms of pIC50 is 6.00 to 7.00

The reported value for CCOc1ccc(NC(=O)N[C@@H](CC(=O)N2CCC(N3Cc4ccccc4NC3=O)CC2)C(=O)N2CCC(N3CCCCC3)CC2)cc1 in terms of pIC50 is 6.00 to 7.00

The reported value for O=C(C[C@H](Nc1ccncn1)C(=O)N1CCC(N2CCCCC2)CC1)N1CCC(N2Cc3ccccc3NC2=O)CC1 in terms of pIC50 is < 6.00

The reported value for O=C(N[C@@H](CC(=O)N1CCC(N2Cc3ccccc3NC2=O)CC1)C(=O)N1CCC(N2CCCCC2)CC1)c1ccc2c(c1)OCO2 in terms of pIC50 is 6.00 to 7.00

The reported value for CCc1cc(CC(NC(=O)N2CCC(N3Cc4ccccc4NC3=O)CC2)C(=O)OC)cc2cn[nH]c12 (racemic) in terms of pIC50 is 6.00 to 7.00

The reported value for O=C(N[C@@H](CC(=O)N1CCC(N2Cc3ccccc3NC2=O)CC1)C(=O)N1CCC(N2CCCCC2)CC1)c1cc(Cl)cc(Cl)c1 in terms of pIC50 is 6.00 to 7.00

----------
- assayed system: human CGRP receptor (SK-N-MC cells) (Homo sapiens, UniProt O60894+Q16602)
- Construct: SK-N-MC cells that endogenously express the human CGRP receptor; endogenous in cells; host or cells: SK-N-MC cells
- run description: Cyclic AMP Assay, functional antagonism of CGRP-induced cyclic AMP formation
- Assay type: cell-based
- test conditions: SK-N-MC cells, 0.3 nM CGRP; read-out: cAMP Function IC50
measurement name: IC50

The reported value for Cc1cc(CC(CC(=O)N2CCC3(CC2)OC(=O)Nc2ccccc23)C(=O)N2CCCCC2)cc2cn[nH]c12 (racemic) [Example 77] in terms of IC50 is 10 to 100 nM

The reported value for O=C(NC(CN1CCc2[nH]ncc2C1)C(=O)N1CCC(N2CCCCC2)CC1)N1CCC(N2Cc3ccccc3NC2=O)CC1 (racemic) [Example 54] in terms of IC50 is 100 to 1000 nM

The reported value for Cc1nc(N[C@@H](CC(=O)N2CCC(N3Cc4ccccc4NC3=O)CC2)C(=O)N2CCC(N3CCCCC3)CC2)nc2nn[nH]c12 [Example 92] in terms of IC50 is 100 to 1000 nM

The reported value for Cc1cc(CC(NC(=O)N2CCC(N3Cc4ccccc4NC3=O)CC2)C(=O)N2CCN(C)CC2)cc2cn[nH]c12 (racemic) [Example 19] in terms of IC50 is < 10 nM

The reported value for O=C(C[C@H](NCc1ccc2[nH]ncc2c1)C(=O)N1CCC(N2CCCCC2)CC1)N1CCC(N2Cc3ccccc3NC2=O)CC1 [Example 94] in terms of IC50 is 100 to 1000 nM

The reported value for C#CCNC(=O)C(CC(=O)N1CCC(N2Cc3ccccc3NC2=O)CC1)Cc1cc(C)c2[nH]ncc2c1 (racemic) [Example 84] in terms of IC50 is 10 to 100 nM

The reported value for O=C(C[C@H](Nc1cc(Cl)ncn1)C(=O)N1CCC(N2CCCCC2)CC1)N1CCC(N2Cc3ccccc3NC2=O)CC1 [Example 88] in terms of IC50 is 10 to 100 nM

The reported value for O=C(NC(Cc1cc(Cl)c2[nH]ncc2c1)C(=O)N1CCC(N2CCCCC2)CC1)N1CCC(N2Cc3ccccc3NC2=O)CC1 (racemic) [Example 43] in terms of IC50 is < 10 nM

The reported value for Cc1cc(CC(NC(=O)N2CCC3(CC2)N=C(c2ccccc2)NC3=O)C(=O)N2CCCCC2)cc2cn[nH]c12 (racemic) [Example 35] in terms of IC50 is 10 to 100 nM

The reported value for Cc1cc(CC(NC(=O)N2CCC(N3Cc4ccccc4NC3=O)CC2)C(=O)N2CCCCC2)cc2cn[nH]c12 (racemic) [Example 17] in terms of IC50 is < 10 nM

----------
- assayed system: CGRP receptor (SK-N-MC cell membranes) (Homo sapiens, UniProt O60894+Q16602)
- Construct: endogenous in cells; host or cells: SK-N-MC cells (membrane homogenate)
- run description: CGRP Binding Assay ([125I]-CGRP radioligand binding, SK-N-MC homogenate)
- test conditions: displacement of [125I]-CGRP, SK-N-MC homogenate; read-out: CGRP binding IC50
pIC50: −log10 of the molar value.
measurement name: pIC50

The reported value for O=C(C[C@H](NCc1ccc2[nH]ncc2c1)C(=O)N1CCC(N2CCCCC2)CC1)N1CCC(N2Cc3ccccc3NC2=O)CC1 [Example 94] in terms of pIC50 is 6.00 to 7.00

The reported value for O=C(NC(Cc1ccc2[nH]ccc2c1)C(=O)N1CCC(N2CCCCC2)CC1)N1CCC(n2c(=O)[nH]c3ccccc32)CC1 (racemic) [Example 3] in terms of pIC50 is 7.00 to 8.00

The reported value for COC(=O)c1cccc(NC(=O)N[C@@H](CC(=O)N2CCC(N3Cc4ccccc4NC3=O)CC2)C(=O)N2CCC(N3CCCCC3)CC2)c1 [Example 196] in terms of pIC50 is 7.00 to 8.00

The reported value for O=C(N[C@@H](CC(=O)N1CCC(N2Cc3ccccc3NC2=O)CC1)C(=O)N1CCC(N2CCCCC2)CC1)c1ccc([N+](=O)[O-])o1 [Example 124] in terms of pIC50 is 6.00 to 7.00

The reported value for O=C(Nc1cc(Cl)cc(Cl)c1)N[C@@H](CC(=O)N1CCC(N2Cc3ccccc3NC2=O)CC1)C(=O)N1CCC(N2CCCCC2)CC1 [Example 159] in terms of pIC50 is 7.00 to 8.00

The reported value for Cc1ccc(OC(=O)N[C@@H](CC(=O)N2CCC(N3Cc4ccccc4NC3=O)CC2)C(=O)N2CCC(N3CCCCC3)CC2)cc1 [Example 132] in terms of pIC50 is 6.00 to 7.00
